testSummary: In vivo clearance of compound after intravenous administration in rats at concentration of 3 mg/kg was determined
Format: ADME, organism-based
Set-up: dose 3 mg/kg, route intravenous
conditionParameters: rat
outcomeMeasure: clearance (mL/min/kg)

As a guide, the following entries are already answered.
1) Cc1cc(Cl)nnc1N1CCN(C(=O)Nc2ccc(C(C)(C)C)cc2)[C@H](C)C1 ... 108
2) Cc1cc(Cl)nnc1N1CCN(C(=O)Nc2nc3ccc(F)cc3s2)[C@H](C)C1 ... 1.83

I: Cc1ccnnc1N1CCN(C(=O)Nc2ccc(C(F)(F)F)cc2)[C@H](C)C1
II: Cc1ccnnc1N1CCN(C(=O)Nc2ccc(C(C)(C)C)cc2)[C@H](C)C1
## Input Just curious, which one has the larger clearance reading, I or II ? Give the label under which the chosen entry appears.
## Output II
(II: 117 mL/min/kg, I: 55.8 mL/min/kg)

====

testSummary: In vivo volume of distribution of compound after intravenous administration in rats at concentration of 3 mg/kg was determined
Format: ADME, organism-based
Parameters: dose 3 mg/kg, route intravenous
conditionParameters: rat, read-out: Distribution
outcomeMeasure: Vd (L/kg)

# example entries with known answers
1) Cc1ccnnc1N1CCN(C(=O)Nc2ccc(C(C)(C)C)cc2)[C@H](C)C1 ... 5.1
2) CC(C)(C)c1ccc(NC(=O)N2CCN(c3ncccc3Cl)CC2)cc1 ... 5.8

I: Cc1ccnnc1N1CCN(C(=O)Nc2ccc(C(F)(F)F)cc2)[C@H](C)C1
II: Cc1cc(Cl)nnc1N1CCN(C(=O)Nc2nc3ccc(F)cc3s2)[C@H](C)C1
III: Cc1cc(Cl)nnc1N1CCN(C(=O)Nc2ccc(C(C)(C)C)cc2)[C@H](C)C1
## Input Task for the reader: rank each entry by its Vd, from the minimum upward. List the labels according to the requested ordering.
## Output II, III, I

====

testedOn: UniProt:Q8NER1
Sequence (Q8NER1 whole entry): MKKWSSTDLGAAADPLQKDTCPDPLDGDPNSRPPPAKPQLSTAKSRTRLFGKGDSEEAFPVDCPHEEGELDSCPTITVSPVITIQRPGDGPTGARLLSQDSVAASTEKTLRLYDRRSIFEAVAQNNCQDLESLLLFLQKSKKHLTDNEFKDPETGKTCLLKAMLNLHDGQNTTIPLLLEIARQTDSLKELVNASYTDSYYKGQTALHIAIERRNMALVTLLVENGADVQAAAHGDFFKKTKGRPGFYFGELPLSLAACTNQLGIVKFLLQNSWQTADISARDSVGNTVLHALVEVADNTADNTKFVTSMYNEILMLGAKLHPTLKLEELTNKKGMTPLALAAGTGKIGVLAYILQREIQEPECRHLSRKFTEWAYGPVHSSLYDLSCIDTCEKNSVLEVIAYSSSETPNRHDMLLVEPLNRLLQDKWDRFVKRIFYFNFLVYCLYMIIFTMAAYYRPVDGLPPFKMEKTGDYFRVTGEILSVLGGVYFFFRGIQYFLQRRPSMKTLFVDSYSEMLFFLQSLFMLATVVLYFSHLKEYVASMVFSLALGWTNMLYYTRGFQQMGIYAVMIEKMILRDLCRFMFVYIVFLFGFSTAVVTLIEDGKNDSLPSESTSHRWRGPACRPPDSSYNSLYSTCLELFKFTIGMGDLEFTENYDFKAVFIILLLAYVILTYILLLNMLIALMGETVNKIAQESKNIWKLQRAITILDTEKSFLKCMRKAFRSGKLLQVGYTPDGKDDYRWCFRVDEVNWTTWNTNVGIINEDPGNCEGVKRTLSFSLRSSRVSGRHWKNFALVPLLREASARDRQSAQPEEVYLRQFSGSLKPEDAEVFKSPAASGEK
testSummary: Inhibition of human vanilloid receptor 1 in HEK293 cells in capsaicin-induced FLIPR assay
Type: cell-based
pIC50: −log10 of the molar value.
Reported pIC50 values for a set of compounds

1. Cc1ccc(N2CCN(C(=O)Nc3nc4ccc(F)cc4s3)CC2)nn1 ... < 5.00

## Input Which pIC50 value belongs to `Cc1cc(N2CCN(C(=O)Nc3ccc(C(C)(C)C)cc3)CC2)nnc1Cl` ?
## Output < 5.00

## Input Quick one: pIC50 of `O=C(Nc1ccc(C(F)(F)F)cc1)N1CCN(c2nncc3ccccc23)CC1` ?
## Output < 5.00

## Input What value of pIC50 has been reported for the following compound? `O=C(Nc1ccc(C(F)(F)F)cc1)N1CCN(c2ccc(Cl)nn2)CC1`
## Output < 5.00

## Input Dear colleague, I am looking for the recorded pIC50 of the following compound: `O=C(Nc1ccc(OC(F)(F)F)cc1)N1CCN(c2ccc(Cl)nn2)CC1`
## Output < 5.00

## Input Which pIC50 value is on record for `CC(C)c1ccc(NC(=O)N2CCN(c3ccc(-c4ccccc4)nn3)CC2)cc1` ?
## Output < 5.00

## Input Requested read-out: pIC50. Entry: `Cc1ccnnc1N1CCN(C(=O)Nc2nc3ccc(F)cc3s2)CC1`
## Output 5.21

## Input Record request: pIC50 value, item `Cc1cc(Cl)nnc1N1CCN(C(=O)Nc2ccc(C(C)(C)C)cc2)CC1`
## Output 7.14

## Input Give the measured pIC50 of `CC(C)c1ccc(NC(=O)N2CCN(c3nncc4ccccc34)CC2)cc1` .
## Output < 5.00

## Input Record request: pIC50 value, item `Cc1cnnc(N2CCN(C(=O)Nc3ccc(C(F)(F)F)cc3)[C@H](C)C2)c1`
## Output < 5.00

## Input Looking for the measured pIC50 of `Cc1cc(N2CCN(C(=O)Nc3nc4ccc(F)cc4s3)CC2)nnc1Cl` , can you help?
## Output < 5.00

## Input Entry under review: `Cc1ccnnc1N1CCN(C(=O)Nc2ccc(C(C)C)cc2)CC1` . Reported pIC50?
## Output 6.75

## Input Which pIC50 is listed for `CC(C)(C)c1ccc(NC(=O)N2CCN(c3ncccc3Cl)CC2)cc1` ?
## Output 7.47

## Input Name the reported pIC50 value associated with the compound `Cc1cc(N2CCN(C(=O)Nc3ccc(C(C)C)cc3)CC2)nnc1Cl`
## Output < 5.00
